B1: CCND2 (parent)
chain: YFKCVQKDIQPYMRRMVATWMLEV

Variants of: B1
protocol-text: protein stability index of a GFP-peptide fusion (GPS, HEK-293T) (PSI 1-6); higher = more stable;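 also: lentivirally expressed fusions sorted by FACS into six bins by GFP to DsRed ratio, PSI derived from sequencing read proportions per bin multiplied by bin number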
condition-parameters: c terminus: a fixed tail appended
Below, each entry is listed with its recorded protein stability index.
Answer with a number only.

Some entries whose results are on file:
mut	protein stability index
K7V	3.05
V24S	2.97

Return protein stability index for the following variant: "F2C" 2.61

Query protein stability index for "K3D" 3.48

Please indicate protein stability index recorded for "Q10I" 3.17

Give protein stability index for "V5G" 1.47

Tell us which protein stability index value is on record for "C4Y" 3.12

Return the recorded protein stability index value; entry: "T19S" 2.83
